Test system: BaF3 cells with engineered EGFR d746-750/T790M
PROCEDURE_TEXT: 3-Day CellTiter Glo (CTG) cell proliferation assay, BaF3 EGFR d746-750/T790M
Type: cell-based
EXPERIMENTAL_SETUP: Mus musculus; BaF3 EGFR d746-750/T790M cells, 3-day CTG proliferation, 72 hours
MEASUREMENT_KIND: IC50 (nM)

# annotated cases, reported IC50 shown
Provide the documented IC50 with BaF3 cells with engineered EGFR d746-750/T790M as the system for Cc1nn([C@@H](C)CO)c2c1/C=C/c1n[nH]c3c(C)nc(cc13)-c1c(C)nn(C)c1O[C@@H](C)CN(C)C2
61.8

Provide the documented IC50 with BaF3 cells with engineered EGFR d746-750/T790M as the system for CCOc1nn([C@@H](C)CO)c2c1/C=C/c1n[nH]c3cnc(cc13)-c1c(CC)nn(C)c1O[C@@H](C)CN(C)C2
66.3

Provide the documented IC50 with BaF3 cells with engineered EGFR d746-750/T790M as the system for CCOc1nn([C@@H](C)CO)c2c1/C=C/c1n[nH]c3cnc(cc13)-c1c(C)nn(C)c1O[C@@H](C)[C@H]1CCCN1C2
0.48

Provide the documented IC50 with BaF3 cells with engineered EGFR d746-750/T790M as the system for CCOc1nn(CCO)c2c1/C=C/c1n[nH]c3cnc(cc13)-c1c(C)nn(C)c1O[C@@H](C)CN(C(C)C)C2
0.44

a. CCOc1nn(CCO)c2c1/C=C/c1n[nH]c3c(C)nc(cc13)-c1cnn(C)c1O[C@@H](C)CN(CC)C2
b. CCOc1nn([C@@H](C)CO)c2c1/C=C/c1n[nH]c3cnc(cc13)-c1c(C)nn(C)c1O[C@@H](C)CN(C1CC1)C2
c. CCOc1nn(CCO)c2c1/C=C/c1n[nH]c3cnc(cc13)-c1c(C)nn(C)c1OC[C@H]1CCCN1C2
Rank the items in ascending order with respect to IC50. The labels, placed in the requested order, form the answer.
b, a, c
(b: 0.61 nM, a: 1.16 nM, c: 6.08 nM)

* * *

SYSTEM: EGFR (L858R) (Homo sapiens, UniProt P00533, L858R)
Sequence (P00533 25-1210 L858R): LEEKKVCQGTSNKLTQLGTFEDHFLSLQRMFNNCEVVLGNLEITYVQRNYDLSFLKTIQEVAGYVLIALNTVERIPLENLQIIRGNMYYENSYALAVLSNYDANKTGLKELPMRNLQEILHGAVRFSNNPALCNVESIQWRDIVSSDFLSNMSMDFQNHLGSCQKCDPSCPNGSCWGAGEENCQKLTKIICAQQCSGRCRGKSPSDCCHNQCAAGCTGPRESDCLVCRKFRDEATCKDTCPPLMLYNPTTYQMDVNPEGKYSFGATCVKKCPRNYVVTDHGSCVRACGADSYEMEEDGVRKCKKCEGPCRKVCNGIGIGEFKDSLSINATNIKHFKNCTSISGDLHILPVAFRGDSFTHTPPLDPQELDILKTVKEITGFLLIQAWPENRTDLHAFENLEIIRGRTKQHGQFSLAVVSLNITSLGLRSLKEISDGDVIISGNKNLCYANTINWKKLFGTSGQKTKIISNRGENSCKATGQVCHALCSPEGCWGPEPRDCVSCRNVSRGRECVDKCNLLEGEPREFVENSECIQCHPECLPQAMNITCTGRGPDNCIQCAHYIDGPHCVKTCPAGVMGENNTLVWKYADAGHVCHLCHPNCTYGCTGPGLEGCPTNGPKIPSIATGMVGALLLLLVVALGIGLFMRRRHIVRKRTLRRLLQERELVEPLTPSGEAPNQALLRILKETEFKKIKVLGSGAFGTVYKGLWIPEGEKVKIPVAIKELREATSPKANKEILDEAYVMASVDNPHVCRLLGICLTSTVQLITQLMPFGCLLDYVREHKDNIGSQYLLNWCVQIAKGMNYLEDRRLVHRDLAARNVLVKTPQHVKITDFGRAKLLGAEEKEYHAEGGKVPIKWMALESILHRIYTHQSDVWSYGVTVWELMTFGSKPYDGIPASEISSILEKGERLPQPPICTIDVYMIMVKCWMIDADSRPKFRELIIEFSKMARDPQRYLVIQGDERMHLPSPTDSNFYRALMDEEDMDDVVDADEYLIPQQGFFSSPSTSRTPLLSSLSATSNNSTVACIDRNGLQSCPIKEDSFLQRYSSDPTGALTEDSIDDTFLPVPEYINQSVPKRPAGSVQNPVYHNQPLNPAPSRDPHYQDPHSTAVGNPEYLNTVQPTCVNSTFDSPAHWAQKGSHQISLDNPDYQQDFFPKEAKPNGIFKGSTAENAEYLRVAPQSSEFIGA
PROCEDURE_TEXT: HotSpot radiometric kinase assay, inhibition of EGFR L858R mutant
EXPERIMENTAL_SETUP: 33P ATP, room temperature, 120 m
MEASUREMENT_KIND: IC50 (nM)

# annotated cases, reported IC50 shown
Which IC50 is reported for this compound? CCOc1nn(CCO)c2c1/C=C/c1n[nH]c3cnc(cc13)-c1cnn(C)c1O[C@@H](C)CN(C(C)C)C2 [Ex. 11]
0.38

Which IC50 is reported for this compound? CCOc1nn(CCO)c2c1/C=C/c1n[nH]c3cnc(cc13)-c1c(C)nn(C)c1O[C@H](C)CN(CC)C2 [Ex. 17]
0.52

Which IC50 is reported for this compound? CCN1Cc2c(c(OC(C)C)nn2CCO)/C=C/c2n[nH]c3cnc(cc23)-c2cnn(C)c2O[C@@H](C)C1 [Ex. 9]
0.45

Which IC50 is reported for this compound? CCOc1nn(CCO)c2c1/C=C/c1n[nH]c3c(C)nc(cc13)-c1cnn(C)c1O[C@@H](C)CN(C)C2 [Ex. 29]
0.72

I. CCOc1nn([C@@H](C)CO)c2c1/C=C/c1n[nH]c3c(C)nc(cc13)-c1c(C)nn(C)c1O[C@H](C)[C@H]1CCCN1C2 [Ex. 180]
II. CCOc1nn(CCO)c2c1/C=C/c1n[nH]c3cnc(cc13)-c1c(C)nn(C)c1OC[C@H](C)N(CC)C2 [Ex. 16]
III. CCOc1nn(CCO)c2c1/C=C/c1n[nH]c3cnc(cc13)-c1c(C)nn(C)c1O[C@@H](C)CN(C(C)C)C2 [Ex. 8]
Arrange the 3 compounds from largest to smallest IC50. The labels, placed in the requested order, form the answer.
II, III, I

* * *

SYSTEM: pEGFR, A431 cells (wildtype EGFR) (Homo sapiens, UniProt P00533)
Construct: pEGFR (Tyr1068) TR-FRET
Sequence (P00533 25-1210): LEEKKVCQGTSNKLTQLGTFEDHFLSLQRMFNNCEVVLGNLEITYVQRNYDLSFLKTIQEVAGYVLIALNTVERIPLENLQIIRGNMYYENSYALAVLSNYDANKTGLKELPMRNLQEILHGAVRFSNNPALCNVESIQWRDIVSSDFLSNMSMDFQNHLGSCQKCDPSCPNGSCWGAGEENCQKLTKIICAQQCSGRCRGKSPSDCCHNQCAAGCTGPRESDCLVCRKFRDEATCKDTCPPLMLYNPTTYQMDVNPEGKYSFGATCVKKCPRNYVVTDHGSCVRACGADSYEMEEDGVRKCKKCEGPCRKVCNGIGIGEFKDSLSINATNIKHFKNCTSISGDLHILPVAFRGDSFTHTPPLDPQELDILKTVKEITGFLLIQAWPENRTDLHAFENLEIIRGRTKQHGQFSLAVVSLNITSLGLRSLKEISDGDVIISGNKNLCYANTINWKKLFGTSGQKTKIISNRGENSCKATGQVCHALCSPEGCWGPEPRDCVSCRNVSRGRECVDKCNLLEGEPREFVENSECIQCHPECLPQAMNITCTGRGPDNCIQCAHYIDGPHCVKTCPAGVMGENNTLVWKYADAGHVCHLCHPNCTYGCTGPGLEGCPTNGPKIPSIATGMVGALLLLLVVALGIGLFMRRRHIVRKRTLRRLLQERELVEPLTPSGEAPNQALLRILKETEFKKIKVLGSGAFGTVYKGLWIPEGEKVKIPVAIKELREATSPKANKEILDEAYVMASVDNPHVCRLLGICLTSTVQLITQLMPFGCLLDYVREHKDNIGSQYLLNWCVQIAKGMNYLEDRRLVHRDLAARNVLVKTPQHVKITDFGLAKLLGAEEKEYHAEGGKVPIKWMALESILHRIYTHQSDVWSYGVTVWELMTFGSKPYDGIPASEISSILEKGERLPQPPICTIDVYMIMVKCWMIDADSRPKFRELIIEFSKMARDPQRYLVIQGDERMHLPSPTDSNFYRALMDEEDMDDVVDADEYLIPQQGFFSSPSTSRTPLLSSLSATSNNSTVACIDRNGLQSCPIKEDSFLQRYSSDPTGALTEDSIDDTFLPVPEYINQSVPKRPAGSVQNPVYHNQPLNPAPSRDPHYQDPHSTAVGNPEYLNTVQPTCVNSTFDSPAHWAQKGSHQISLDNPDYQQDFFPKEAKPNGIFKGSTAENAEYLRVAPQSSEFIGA
PROCEDURE_TEXT: Cellular EGFR phosphorylation assay (LANCE Ultra TR-FRET) in A431 cells
Assay type: cell-based
EXPERIMENTAL_SETUP: 4 hours at 37° C., 40 ng/mL EGF for the final 10 minutes, read-out: A431 pEGFR IC50
MEASUREMENT_KIND: IC50 (nM)

# annotated cases, reported IC50 shown
Which IC50 is reported for this compound? CCc1nn(CCO)c2c1/C=C/c1n[nH]c3cnc(cc13)-c1c(C)nn(C)c1O[C@@H](C)CN(C)C2
29

Which IC50 is reported for this compound? CCOc1nn(CCO)c2c1/C=C/c1n[nH]c3cnc(cc13)-c1c(CC)nn(C)c1O[C@@H](C)CN(CC)C2
8.81

Which IC50 is reported for this compound? Cc1nn(CCO)c2c1/C=C/c1n[nH]c3c(C)nc(cc13)-c1c(C)nn(C)c1O[C@@H](C)CN(C(C)C)C2
3.52

Which IC50 is reported for this compound? CCOc1nn(CCO)c2c1/C=C/c1n[nH]c3c(C)nc(cc13)-c1c(C)nn(C)c1O[C@@H](C)[C@H]1CCCN1C2
8.86

Which IC50 is reported for this compound? Cc1nn(C)c2c1-c1cc3c(n[nH]c3cn1)/C=C/c1c(OCC#N)nn([C@@H](C)CO)c1CN1CCC[C@@H]1CO2
29.6

Which IC50 is reported for this compound? CCOc1nn(CCO)c2c1/C=C/c1n[nH]c3c(C)nc(cc13)-c1cnn(C)c1O[C@@H](C)CN(C)C2
13.7

Which IC50 is reported for this compound? CCOc1nn([C@H](C)CO)c2c1/C=C/c1n[nH]c3c(C)nc(cc13)-c1c(C)nn(C)c1O[C@@H](C)CN(C)C2
17.7

Which IC50 is reported for this compound? CCOc1nn(C[C@H](C)O)c2c1/C=C/c1n[nH]c3cnc(cc13)-c1c(C)nn(C)c1O[C@@H](C)CN(C1CC1)C2
5.13

a. CCOc1nn(CCO)c2c1/C=C/c1n[nH]c3cnc(cc13)-c1c(C)nn(C)c1O[C@H](C)CN(CC)C2
b. CCOc1nn(CCO)c2c1/C=C/c1n[nH]c3cnc(cc13)-c1c(cnn1C)OCCN(C)C2
// which entry has the larger IC50 value, a or b ? Indicate your choice by writing its label.
b

A. CCOc1nn(CCO)c2c1/C=C/c1n[nH]c3cnc(cc13)-c1c(C)nn(C)c1OC[C@H](C)N(C(C)C)C2
B. CCOc1nn(CCO)c2c1/C=C/c1n[nH]c3cnc(cc13)-c1c(C)nn(C)c1OC[C@@H](C)N(CC)C2
Quick one: lower IC50, A or B ? Indicate your choice by writing its label.
A
(A: 9.27 nM, B: 15.6 nM)

P. Cc1nn(C)c2c1/C=C/c1n[nH]c3c(C)nc(cc13)-c1c(C)nn(C)c1O[C@@H](C)CN(C(C)C)C2
Q. CCOc1nn([C@@H](C)CO)c2c1/C=C/c1n[nH]c3cnc(cc13)-c1c(C)nn(C)c1O[C@H](C)CN(CC)C2
// which entry has the larger IC50 value, P or Q ? Indicate your choice by writing its label.
Q

* * *

SYSTEM: EGFR (D746-750) (Homo sapiens, UniProt P00533, DEL746-750)
Sequence (P00533 with tags, fused parts or gaps DEL746-750): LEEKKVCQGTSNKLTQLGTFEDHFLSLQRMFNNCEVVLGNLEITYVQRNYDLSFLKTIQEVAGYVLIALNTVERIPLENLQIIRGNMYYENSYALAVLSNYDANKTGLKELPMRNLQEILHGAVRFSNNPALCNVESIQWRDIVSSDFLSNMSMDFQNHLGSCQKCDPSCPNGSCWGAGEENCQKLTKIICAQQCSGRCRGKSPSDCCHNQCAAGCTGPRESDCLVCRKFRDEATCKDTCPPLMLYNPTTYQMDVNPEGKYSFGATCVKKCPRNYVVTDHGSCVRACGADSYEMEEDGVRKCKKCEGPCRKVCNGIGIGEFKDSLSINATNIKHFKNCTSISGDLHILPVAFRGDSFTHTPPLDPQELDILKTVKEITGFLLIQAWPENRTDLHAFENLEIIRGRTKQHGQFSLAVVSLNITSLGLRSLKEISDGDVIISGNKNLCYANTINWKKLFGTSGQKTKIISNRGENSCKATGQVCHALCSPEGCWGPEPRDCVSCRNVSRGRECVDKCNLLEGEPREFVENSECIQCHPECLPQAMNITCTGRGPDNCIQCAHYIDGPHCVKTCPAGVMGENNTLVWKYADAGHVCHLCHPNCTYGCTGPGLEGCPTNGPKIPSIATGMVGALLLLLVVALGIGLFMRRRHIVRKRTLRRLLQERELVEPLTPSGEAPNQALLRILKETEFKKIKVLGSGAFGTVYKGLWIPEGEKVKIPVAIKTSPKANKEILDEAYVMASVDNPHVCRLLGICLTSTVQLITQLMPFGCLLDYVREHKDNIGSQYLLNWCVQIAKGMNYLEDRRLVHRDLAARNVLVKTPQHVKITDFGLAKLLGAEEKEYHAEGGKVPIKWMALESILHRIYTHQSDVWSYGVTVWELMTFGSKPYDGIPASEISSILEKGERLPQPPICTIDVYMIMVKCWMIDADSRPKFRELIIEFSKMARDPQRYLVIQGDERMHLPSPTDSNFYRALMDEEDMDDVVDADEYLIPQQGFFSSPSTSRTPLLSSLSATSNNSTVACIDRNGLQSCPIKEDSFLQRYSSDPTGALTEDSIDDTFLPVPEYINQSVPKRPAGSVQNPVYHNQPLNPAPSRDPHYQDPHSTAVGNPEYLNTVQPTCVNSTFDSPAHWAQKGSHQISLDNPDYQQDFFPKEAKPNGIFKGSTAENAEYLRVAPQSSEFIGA
PROCEDURE_TEXT: HotSpot radiometric kinase assay, inhibition of EGFR 746-750 mutant
EXPERIMENTAL_SETUP: 33P ATP, room temperature, 120 m
Procedure: Biochemical Assays for inhibition of wild-type and mutant EGFRs Briefly, specific kinase/substrate pairs along with required cofactors were prepared in reaction buffer; 20 mM HEPES pH 7.5, 10 mM […], 1 mM EGTA, 0.02% Brij35, 0.02 mg/ml BSA, 0.1 mM Na3VO4, 2 mM DTT, 1% DMSO. […]
MEASUREMENT_KIND: IC50 (nM)

Which IC50 is reported for this compound? Cc1nn(C)c2c1-c1cc3c(n[nH]c3cn1)/C=C/c1c(OCC#N)nn(CCO)c1CN1CCC[C@@H]1C(C)O2 (single isomer, unassigned)
0.19

a. Cc1nn([C@@H](C)CO)c2c1/C=C/c1n[nH]c3cnc(cc13)-c1c(C)nn(C)c1O[C@@H](C)CN(C)C2
b. CCOc1nn([C@@H](C)CO)c2c1/C=C/c1n[nH]c3cnc(cc13)-c1c(C)nn(C)c1O[C@@H](C)[C@H]1CCCN1C2
// which entry has the larger IC50 value, a or b ? Indicate your choice by writing its label.
b

* * *

SYSTEM: EGFR (D770_N771insNPG) (Homo sapiens, UniProt P00533, INS770NPG)
Sequence (P00533 with tags, fused parts or gaps INS770NPG limits assumed): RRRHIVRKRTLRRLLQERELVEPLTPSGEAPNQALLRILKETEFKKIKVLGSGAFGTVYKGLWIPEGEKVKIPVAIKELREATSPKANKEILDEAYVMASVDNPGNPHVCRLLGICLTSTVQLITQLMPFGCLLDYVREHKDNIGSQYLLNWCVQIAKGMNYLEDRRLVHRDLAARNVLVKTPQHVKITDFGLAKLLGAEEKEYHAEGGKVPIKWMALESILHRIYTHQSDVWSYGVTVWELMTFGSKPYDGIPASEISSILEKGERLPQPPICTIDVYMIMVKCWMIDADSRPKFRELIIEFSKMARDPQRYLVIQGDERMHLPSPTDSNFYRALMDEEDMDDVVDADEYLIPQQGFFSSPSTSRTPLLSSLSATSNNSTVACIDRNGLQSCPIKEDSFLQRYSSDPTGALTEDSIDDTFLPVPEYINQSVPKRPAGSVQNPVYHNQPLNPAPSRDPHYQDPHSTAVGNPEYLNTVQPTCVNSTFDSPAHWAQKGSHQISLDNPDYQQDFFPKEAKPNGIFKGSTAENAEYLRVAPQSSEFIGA
PROCEDURE_TEXT: HotSpot radiometric kinase assay, inhibition of EGFR (D770_N771insNPG) mutant
EXPERIMENTAL_SETUP: 33P ATP, room temperature, 120 m
Protocol: Biochemical Assays for inhibition of wild-type and mutant EGFRs Briefly, specific kinase/substrate pairs along with required cofactors were prepared in reaction buffer; 20 mM HEPES pH 7.5, 10 mM […], 1 mM EGTA, 0.02% Brij35, 0.02 mg/ml BSA, 0.1 mM Na3VO4, 2 mM DTT, 1% DMSO. […]
pIC50: −log10 of the molar value.
MEASUREMENT_KIND: pIC50

# annotated cases, reported pIC50 shown
Which pIC50 is reported for this compound? CCOc1nn(CCO)c2c1/C=C/c1n[nH]c3c(C)nc(cc13)-c1c(C)nn(C)c1O[C@@H](C)CN(C)C2
9.70

Which pIC50 is reported for this compound? Cc1nn(CCO)c2c1/C=C/c1n[nH]c3cnc(cc13)-c1c(C)nn(C)c1O[C@H](C)CN(C(C)C)C2
8.83

Which pIC50 is reported for this compound? CCOc1nn(CCO)c2c1/C=C/c1n[nH]c3cnc(cc13)-c1cnn(C)c1OC[C@H](C)N(CC)C2
8.96

1. CCN1Cc2c(c(OCC#N)nn2[C@@H](C)CO)/C=C/c2n[nH]c3cnc(cc23)-c2c(C)nn(C)c2O[C@H](C)C1
2. CCOc1nn(CCO)c2c1/C=C/c1n[nH]c3cnc(cc13)-c1c(C)nn(C)c1O[C@@H](C)CN(CC)C2
Quick one: lower pIC50, 1 or 2 ? Indicate your choice by writing its label.
1
(1: 9.14, 2: 9.66)

A. CCOc1nn([C@@H](C)CO)c2c1/C=C/c1n[nH]c3cnc(cc13)-c1c(C)nn(C)c1O[C@@H](C)CN(CC)C2
B. Cc1nc2cc3c(n[nH]c13)/C=C/c1c(OC(C)C)nn(CCO)c1CN(C)C[C@H](C)Oc1c-2cnn1C
// which entry has the larger pIC50 value, A or B ? Indicate your choice by writing its label.
A
